# assayed system: T1, truncated importin α3 without the IBB domain (residues 64-521) (human, UniProt O00629 64-521)
# T1 construct: human importin α3 (KPNA4) without the IBB domain, residues 64-521; also called ΔImpα3; ΔImportin
# T1 sequence (looked up): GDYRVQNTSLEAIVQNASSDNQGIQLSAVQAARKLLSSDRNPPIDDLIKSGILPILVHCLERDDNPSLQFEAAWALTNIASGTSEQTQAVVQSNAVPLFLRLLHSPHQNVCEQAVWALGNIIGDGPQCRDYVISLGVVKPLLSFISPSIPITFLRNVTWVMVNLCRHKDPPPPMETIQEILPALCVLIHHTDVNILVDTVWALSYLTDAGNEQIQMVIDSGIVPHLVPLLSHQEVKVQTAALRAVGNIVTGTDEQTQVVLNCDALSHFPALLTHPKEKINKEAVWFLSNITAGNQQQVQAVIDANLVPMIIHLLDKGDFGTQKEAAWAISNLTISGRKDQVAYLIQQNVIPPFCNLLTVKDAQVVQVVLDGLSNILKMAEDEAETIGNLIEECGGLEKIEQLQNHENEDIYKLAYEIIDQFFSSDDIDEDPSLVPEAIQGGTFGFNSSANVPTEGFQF
# protocol: ITC; Impα3 or ΔImpα3 (10–20 μM) in the cell, NLS-NUPR1 peptide (150–300 μM) in the syringe; Tris 50 mM, pH 8; 298 K; single ligand binding site (1:1) model, n gives the fraction of binding-competent protein
# study conditions: both partners purified
Task for the reader: assign each of the following binders its reported log10 of Kd.
Field: value | Transform: log10 | Quantity: Kd | Unit: µM

Check out these entries, answers already filled in.
Ac-YTNRPSPGGHERKLVTKLQNSE-NH2 (tyrosine introduced at the N terminus for absorbance measurements; not a residue of NUPR1; The added Tyr stands where NUPR1 has residue 53; also called wt; wt peptide; source: synthetic peptide (NZYtech, purity 95%)) [wild-type NLS-NUPR1 peptide (residues 54-74 of NUPR1 with an added N-terminal Tyr)] :: -0.02
Ac-YTNRPSPGGHERALVEKLQNSE-NH2 (tyrosine introduced at the N terminus for absorbance measurements; not a residue of NUPR1; also called K65AT68E peptide; source: synthetic peptide (NZYtech, purity 95%)) [NLS-NUPR1 peptide K65AT68E] :: 1.15

Batch of 2 binders: report log10 of Kd for each.
1. Ac-YTNRPSPGGHERALVEALQNSE-NH2 (tyrosine introduced at the N terminus for absorbance measurements; not a residue of NUPR1; also called K65AT68EK69A peptide; triple mutant; source: synthetic peptide (NZYtech, purity 95%)) [NLS-NUPR1 peptide K65AT68EK69A]
2. Ac-YTNRPSPGGHERALVTKLQNSE-NH2 (tyrosine introduced at the N terminus for absorbance measurements; not a residue of NUPR1; also called K65A peptide; Lys65Ala; source: synthetic peptide (NZYtech, purity 95%)) [NLS-NUPR1 peptide K65A]

[1.38, 0.43]

Data provenance is paper PMC7565984.
